compounds and their reported growth
# Tested on: DU-145 prostate
# PROCEDURE DETAILS: NCI-60 one-dose screen, 48 h (100 = growth as untreated, 0 = no growth, -100 = all killed)
# CONDITION PARAMETERS: 10 µM unless noted
This is part of a sample that, as a whole, favours compounds with a hit. Of some 83,000 tested, about 20% had one in any assay.
REPORTED ENDPOINT: growth (%)

C=C1C(=O)O[C@H]2[C@H]1CC/C(COC(=O)c1cn(C)c3ccccc13)=C\CC[C@@]1(C)O[C@@H]21 ... -72.4
COc1ccc(Cl)c([N+](=O)[O-])c1 ... 108
CC(C)(C)c1ccc(O)c(Cc2cc(C(C)(C)C)ccc2O)c1 ... 105

====

# Test system: KM12 colon
# PROCEDURE DETAILS: NCI-60 one-dose screen, 48 h (100 = growth as untreated, 0 = no growth, -100 = all killed)
# CONDITION PARAMETERS: 10 µM unless noted
# Method: Growth inhibition of the KM12 human tumor cell line is measured as a screen for anti-cancer activity. Cells are grown in 96 well plates and exposed to the test compound for 48 hours. Compounds are tested at a single concentration, which is 10^-5 M for most compounds. The reported endpoint is percent growth (GI% or GIPRCNT), where numbers from 0 - 100% represent growth inhibition, and numbers from -100% - 0 represent cell death. For example, a value of 40 represents 60% growth inhibition. […]
About 83,000 compounds went through this panel and 20% of them were active in at least one assay; those are over-represented in the sample as a whole.
Criterion: growth strictly under 60%. Met: label 1. Not met: label 0.

COc1cc(/C=C/C(=O)/C=C/c2cc3ccc(Cl)cc3[nH]c2=O)ccc1O ... label 0
OCCNc1nc(NCCO)nc(Nc2ccc(C3=NN(c4cc(Cl)cc(Cl)c4)C(c4ccccc4)C3)cc2)n1 (stereo not given) ... label 1
CN1C(=O)c2cc(Cl)nc3c(NC(=O)c4cccc(Cl)c4)c(Cl)c(NC(=O)c4cccc(Cl)c4)c1c23 ... label 0
CC[C@]12C=CCN3CC[C@@]4(c5cc(NC(=O)CCC(=O)O[C@H]6CC[C@H]7[C@@H]8CC[C@H]9CC(=O)CC[C@]9(C)[C@H]8CC[C@]67C)c(OC)cc5N(C)[C@H]4[C@@](O)(C(=O)OC)[C@@H]1OC(C)=O)[C@@H]32 ... label 0
C#C[C@@]1(O)[C@@H](CO)O[C@@H](n2cnc3c(-c4ccccc4)ncnc32)[C@@H]1O ... label 0
CCO/C=N/S(=O)(=O)c1cc2c(cc1Cl)NC=NS2(=O)=O ... label 0
Cc1ccc(C2=N[C@H]3CCC[C@@H]3N(c3ccccc3)C(C(Cl)Cl)=N2)cc1 ... label 0
C#CCN(CCCOc1ccc(Cl)cc1Cl)CCCSC(=O)CCCCCN1/C(=C\C=C2/CCCC(/C=C/C3=[N+](CCCCCC(=O)[O-])c4ccccc4C3(C)C)=C2Cl)C(C)(C)c2ccccc21 ... label 1
Cc1c(Cl)cccc1NC(=O)c1sc2nc3c(cc2c1N)CCCCCC3 ... label 1
COc1ccc2c(c1)Oc1nc(N)c(C#N)c(N)c1C2Sc1ccc(O)cc1 (stereo not given) ... label 0
C#CCOC(=O)[C@]1(C)CCC[C@]2(C)[C@H]3C[C@H]4C(C(C)C)=C[C@]3(CC[C@H]21)[C@@H]1C(=O)CCC(=O)[C@@H]14 ... label 0
FC(F)(F)c1ccc2c(Nc3cccc(C4CC(c5ccccc5)=NN4c4ccc(Cl)cc4)c3)ccnc2c1 (stereo not given) ... label 1
Cc1nc2sc(C(=O)Nc3ccccc3Cl)c(N)c2cc1C(C)O (stereo not given) ... label 1
O=C1CCC23OC(C(O)c4ccccc4N12)C1C(Br)=NOC13 (stereo not given) ... label 0
Nc1ccc(C2=NN(C(=O)c3cc(-c4ccc(Cl)cc4)nc4ccccc34)C(c3ccccc3)C2)cc1 (stereo not given) ... label 1
CN(C)c1ccc(-c2ccc3[nH]c(=O)nc(-c4ccc(F)cc4)c3c2)cn1 ... label 1
Cc1cccc2nc3c(n12)C(=O)C(=O)c1ccccc1-3 ... label 0
C#C[C@@]1(O)[C@@H](CO)O[C@@H](n2cc(F)c3c(N)ncnc32)[C@@H]1O ... label 1
COc1cc(/C=C/C(=O)c2ccc(NC(=O)CSc3nnc(-c4cc(OC)c(OC)c(OC)c4)n3-c3ccccc3)cc2)cc(OC)c1OC ... label 1
Nn1c(SCC(=O)Nc2ccc(Cl)cc2)nnc1-c1cc(F)c(Cl)cc1Cl ... label 0

Data provenance: PubChem BioAssay (NCI)
